- Measured Target: HLA-B*46:01
- Protocol Summary: IEDB peptide-MHC binding, purified MHC/competitive/fluorescence; filed as Kd, often an IC50 or EC50 that approximates it; bounds were set here for any values at or beyond the usual limits of such assays
- Applied Conditions: source organism: Orthohantavirus sinnombreense
Recorded Metric: Kd

q: Field request: Kd | item: GSFRKICGF
a: ≥ 20 µM

----------
- Measured Target: HLA-A*29:02
- Protocol Summary: IEDB peptide-MHC binding, purified MHC/direct/fluorescence; filed as Kd, often an IC50 or EC50 that approximates it; bounds were set here for any values at or beyond the usual limits of such assays
- Applied Conditions: source organism: Zaire ebolavirus
pKd: −log10 of the molar value.
Recorded Metric: pKd

q: Field request: pKd | item: KLWTSISCA
a: ≤ 4.70

----------
- Measured Target: HLA-B*44:03
- Protocol Summary: IEDB peptide-MHC binding, purified MHC/competitive/radioactivity; filed as Kd, often an IC50 or EC50 that approximates it; bounds were set here for any values at or beyond the usual limits of such assays
- Applied Conditions: source organism: SARS coronavirus Tor2
Recorded Metric: pKd
The quantity pKd is defined as the negative base-10 logarithm of the molar concentration.

Residue Codes: FELTSMKYFV
Value Reported: 5.35
//
Residue Codes: VEAVMYMGT
Value Reported: 5.19
//
Residue Codes: SEAPNAKEEI
Value Reported: 6.84
//
Residue Codes: QELYSPLFLI
Value Reported: 8.13
//
Residue Codes: REGVFVFNGT
Value Reported: 6.51

--- query ---
q: Lookup: pKd / HLA-B*44:03 / FEKMVSLLSV
a: 5.21

----------
- Measured Target: HLA-A*30:02
- Protocol Summary: IEDB peptide-MHC binding, purified MHC/competitive/fluorescence; filed as Kd, often an IC50 or EC50 that approximates it; bounds were set here for any values at or beyond the usual limits of such assays
- Applied Conditions: source organism: Bacillus anthracis str. A0488
pKd: −log10 of the molar value.
Recorded Metric: pKd

q: Field request: pKd | item: WDAYIPHYV
a: ≤ 5.30

----------
- Measured Target: HLA-B*44:02
- Protocol Summary: IEDB peptide-MHC binding, purified MHC/direct/fluorescence; filed as Kd, often an IC50 or EC50 that approximates it; bounds were set here for any values at or beyond the usual limits of such assays
- Applied Conditions: source organism: Giardia intestinalis
Recorded Metric: Kd

q: Field request: Kd | item: GYTPGQQFY
a: ≥ 20 µM

q: Note, next up: DYAMHGTVF
a: ≥ 20 µM

----------
- Measured Target: HLA-A*02:01
- Protocol Summary: IEDB peptide-MHC binding, cellular MHC/competitive/fluorescence; bounds were set here for any values at or beyond the usual limits of such assays
- Applied Conditions: source organism: Homo sapiens
Recorded Metric: IC50 (nM)
Express your answer in nM, writing the number without its unit.

q: Lookup: IC50 / HLA-A*02:01 / FLMDFIHQV
a: 240

----------
- Measured Target: HLA-A*02:11
- Protocol Summary: IEDB peptide-MHC binding, purified MHC/direct/fluorescence; filed as Kd, often an IC50 or EC50 that approximates it; bounds were set here for any values at or beyond the usual limits of such assays
- Applied Conditions: source organism: Listeria monocytogenes serotype 4b str. H7858
Recorded Metric: Kd

q: Field request: Kd | item: ERYPGGVSL
a: ≥ 20 µM

q: Note, next up: FPDGKPFTL
a: ≥ 20 µM
